- System: Mycobacterium tuberculosis
- protocolDescription: Antitubercular activity against Mycobacterium tuberculosis H37Rv in anaerobic condition after 7 days by low oxygen recovery assay
- Assay type: functional
- assayConditions: 168 h
measuredProperty: MIC

Query: So what's the measured MIC for this one? `CSc1ccccc1-c1ccc(CO[C@@H]2COc3nc([N+](=O)[O-])cn3C2)cc1`
Result: 1.4 µM

Query: So what's the measured MIC for this one? `O=[N+]([O-])c1cn2c(n1)OC[C@@H](OCc1ccc(-c3cc(F)c(F)c(F)c3)cc1)C2`
Result: 0.76 µM

Query: So what's the measured MIC for this one? `O=[N+]([O-])c1cn2c(n1)OC[C@@H](OCc1ccc(-c3ccc(C(F)(F)F)cc3)cc1)C2`
Result: 1.4 µM

Query: So what's the measured MIC for this one? `O=[N+]([O-])c1cn2c(n1)OC[C@@H](OCc1ccc(OC(F)(F)F)cc1)C2`
Result: 2.6 µM

Query: So what's the measured MIC for this one? `O=[N+]([O-])c1cn2c(n1)OC[C@@H](OCc1ccc(-c3cccc(C(F)(F)F)c3)cc1)C2`
Result: 1.3 µM

Query: So what's the measured MIC for this one? `CSc1ccc(-c2ccc(CO[C@@H]3COc4nc([N+](=O)[O-])cn4C3)cc2)cc1`
Result: 0.95 µM

Query: So what's the measured MIC for this one? `NC(=O)c1cccc(-c2ccc(CO[C@@H]3COc4nc([N+](=O)[O-])cn4C3)cc2)c1`
Result: 6.7 µM

Query: So what's the measured MIC for this one? `CSc1cccc(-c2ccc(CO[C@@H]3COc4nc([N+](=O)[O-])cn4C3)cc2)c1`
Result: 0.95 µM

Query: So what's the measured MIC for this one? `CC(C)(C)c1ccc(-c2ccc(CO[C@@H]3COc4nc([N+](=O)[O-])cn4C3)cc2)cc1`
Result: > 32 µM

Query: So what's the measured MIC for this one? `O=[N+]([O-])c1cn2c(n1)OC[C@@H](OCc1cccc(-c3ccc(OCCCO)cc3)c1)C2`
Result: 1.5 µM

Query: So what's the measured MIC for this one? `O=[N+]([O-])c1cn2c(n1)OC[C@@H](OCc1cccc(-c3ccccc3)c1)C2`
Result: 2.1 µM

Query: So what's the measured MIC for this one? `O=[N+]([O-])c1cn2c(n1)OC[C@@H](OCc1ccccc1-c1cccc(OC(F)(F)F)c1)C2`
Result: 6.3 µM

Query: So what's the measured MIC for this one? `Cc1cc(-c2ccc(CO[C@@H]3COc4nc([N+](=O)[O-])cn4C3)cc2)cc(C)c1O`
Result: 1.5 µM

Query: So what's the measured MIC for this one? `O=Cc1ccccc1-c1ccc(CO[C@@H]2COc3nc([N+](=O)[O-])cn3C2)cc1`
Result: 0.78 µM

Query: So what's the measured MIC for this one? `O=[N+]([O-])c1cn2c(n1)OC[C@@H](OCc1ccc(-c3ccc4ccccc4c3)cc1)C2`
Result: 0.87 µM

Query: So what's the measured MIC for this one? `O=[N+]([O-])c1cn2c(n1)OC[C@@H](OCc1ccc(-c3cccc(O)c3)cc1)C2`
Result: 3.1 µM

Query: So what's the measured MIC for this one? `O=[N+]([O-])c1cn2c(n1)OC[C@@H](OCc1ccc(-c3cccc(-c4ccccc4)c3)cc1)C2`
Result: 0.88 µM

Query: So what's the measured MIC for this one? `O=[N+]([O-])c1cn2c(n1)OC[C@@H](OCc1ccc(-c3ccc(Cl)cc3)cc1)C2`
Result: 2.7 µM

Query: So what's the measured MIC for this one? `O=[N+]([O-])c1cn2c(n1)OC[C@@H](OCc1ccc(-c3cccc(OCCCO)c3)cc1)C2`
Result: 3.2 µM
